Target under test: human SLC6A19 and TMEM27 (Homo sapiens, UniProt Q695T7)
Construct: expressed in transfected cells
Sequence (Q695T7 whole entry): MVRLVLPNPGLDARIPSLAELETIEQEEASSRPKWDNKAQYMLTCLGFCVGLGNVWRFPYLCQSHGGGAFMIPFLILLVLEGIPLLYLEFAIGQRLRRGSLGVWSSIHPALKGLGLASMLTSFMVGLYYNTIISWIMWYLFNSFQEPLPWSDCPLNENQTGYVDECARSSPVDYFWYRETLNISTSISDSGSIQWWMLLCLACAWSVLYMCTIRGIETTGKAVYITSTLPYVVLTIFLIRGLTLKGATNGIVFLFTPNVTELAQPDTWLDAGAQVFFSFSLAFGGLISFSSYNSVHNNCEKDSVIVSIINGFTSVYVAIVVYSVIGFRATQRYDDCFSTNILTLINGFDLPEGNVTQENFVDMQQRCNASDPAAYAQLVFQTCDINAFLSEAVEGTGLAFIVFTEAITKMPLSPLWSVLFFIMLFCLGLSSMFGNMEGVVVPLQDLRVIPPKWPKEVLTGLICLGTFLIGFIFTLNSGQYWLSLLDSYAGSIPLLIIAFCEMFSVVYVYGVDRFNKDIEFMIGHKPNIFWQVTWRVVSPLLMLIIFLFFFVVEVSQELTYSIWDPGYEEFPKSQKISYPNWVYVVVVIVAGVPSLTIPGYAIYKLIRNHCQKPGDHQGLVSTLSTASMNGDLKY
Sequence (Q9HBJ8 15-222 partner): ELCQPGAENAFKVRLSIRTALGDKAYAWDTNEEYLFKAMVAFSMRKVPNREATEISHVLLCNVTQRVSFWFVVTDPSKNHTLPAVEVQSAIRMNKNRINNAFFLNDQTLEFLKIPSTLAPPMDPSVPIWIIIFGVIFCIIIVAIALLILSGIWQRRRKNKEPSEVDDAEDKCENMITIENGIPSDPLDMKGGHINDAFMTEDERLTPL
Test details: 13C6,15N-isoleucine uptake in CHO cells with doxycycline-inducible expression of human SLC6A19 and TMEM27, RapidFire mass spectrometry (Example B-2)
Format: cell-based
Stated conditions: read-out: SLC6A19_RapidFire Uptake Assay IC50
Measurement name: IC50 (nM)

Below, each entry is followed by its recorded IC50 result.
O=C(NCc1cc2cc(C(F)(F)F)c(OCc3cscn3)cc2[nH]1)N1CCC1 [Compound 478] = 172
CC1(C(=O)NCc2cc3cc(F)c(OCc4cncs4)cc3[nH]2)CC1 [Compound 9] = 271
Cc1csc(COc2cc3[nH]c(CNC(=O)C4(C)CC4)cc3cc2Cl)n1 [Compound 24] = 222
O=C(NCc1cc2cc(Cl)c(OCc3cncs3)cc2[nH]1)N1CCCC1 [Compound 119] = 485
Cn1ncc(COc2cc3[nH]c(CNC(=O)C4(C)CC4)cc3cc2F)n1 [Compound 496] = 424
CC1(C(=O)NCc2cc3ccc(CCc4cscn4)cc3[nH]2)CC1 [Compound 76] = 34
CC1(C(=O)NCc2cc3cc(CC(F)(F)F)c(OCc4cscn4)cc3[nH]2)CC1 [Compound 648] = 344
CC1(C(=O)NCc2cc3ccc(NCc4ccon4)cc3[nH]2)CC1 [Compound 152] = 2060
CC1(C(=O)NCc2cc3ccc(NCc4ccccc4)cc3[nH]2)CC1 [Compound 3] = 504
Cc1nc(COc2cc3[nH]c(CNC(=O)C4(C)CC4)cc3cc2F)co1 [Compound 547] = 314

P = CC1(C(=O)NCc2cc3ccc(OCc4cnsn4)cc3[nH]2)CC1 [Compound 166]
Q = O=C(NCc1cc2cc(F)c(CCc3ccon3)cc2[nH]1)N1CCCC1 [Compound 603]
Problem: In the pair P and Q , the larger recorded IC50 belongs to which? Lab note: record the label of whichever item you select.
Result: Q
(Q: 263 nM, P: 48 nM)
